# Target entity: T1, human NPRA (human, UniProt P16066 33-1061)
# T1 sequence (looked up): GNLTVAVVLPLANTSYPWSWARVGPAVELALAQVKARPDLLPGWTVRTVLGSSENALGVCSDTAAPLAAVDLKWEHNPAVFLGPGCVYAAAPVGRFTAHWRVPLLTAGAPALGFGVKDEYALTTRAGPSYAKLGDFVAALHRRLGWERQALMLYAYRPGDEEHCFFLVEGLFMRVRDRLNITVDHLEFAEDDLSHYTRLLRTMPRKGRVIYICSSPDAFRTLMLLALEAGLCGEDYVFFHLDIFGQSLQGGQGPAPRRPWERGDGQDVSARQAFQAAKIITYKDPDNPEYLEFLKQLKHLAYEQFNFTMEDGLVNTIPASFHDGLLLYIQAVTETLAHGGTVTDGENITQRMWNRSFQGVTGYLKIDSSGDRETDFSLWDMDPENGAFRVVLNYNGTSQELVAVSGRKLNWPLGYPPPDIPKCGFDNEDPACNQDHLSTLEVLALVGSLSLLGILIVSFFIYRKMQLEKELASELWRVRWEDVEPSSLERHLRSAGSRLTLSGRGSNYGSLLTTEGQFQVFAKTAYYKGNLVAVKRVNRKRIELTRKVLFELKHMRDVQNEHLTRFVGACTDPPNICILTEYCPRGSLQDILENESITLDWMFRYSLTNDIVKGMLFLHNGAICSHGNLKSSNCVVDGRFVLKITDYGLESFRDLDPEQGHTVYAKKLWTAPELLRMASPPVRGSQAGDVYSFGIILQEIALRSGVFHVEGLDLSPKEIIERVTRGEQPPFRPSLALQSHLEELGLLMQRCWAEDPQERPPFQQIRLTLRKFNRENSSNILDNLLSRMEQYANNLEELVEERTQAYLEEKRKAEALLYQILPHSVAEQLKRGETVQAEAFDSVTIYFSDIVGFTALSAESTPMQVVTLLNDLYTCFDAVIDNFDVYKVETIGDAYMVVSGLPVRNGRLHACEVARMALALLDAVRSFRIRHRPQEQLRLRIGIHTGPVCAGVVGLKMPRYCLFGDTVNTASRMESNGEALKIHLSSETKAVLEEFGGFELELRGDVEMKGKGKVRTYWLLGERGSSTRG
# Assay info: cell-based or functional assay
Numbered stars: 1 amine (or outer) side, 2 acyl side, 3 side chain; on linkers, the order of the positions; unused ones are H or OH. Bridge positions count the residues as written; N and C are the ends. Square brackets hold non-standard residues; d marks the D form. * marks the point of attachment. thioacetal = thioacetal linkage between two cysteines (intrachain bond at the bracketed Cys); C20 diacid = O=C(O)CCCCCCCCCCCCCCCCCCC(=O)*; γGlu = O=C(O)[C@H](CCC(=O)[*:2])N[*:1]; βAla = NCCC(=O)O
Experimental endpoint: cGMP Assay (EC50, pM) w/Casein

> print(dat)
                                     binder           experimental.endpoint  observed.measurement
1  {C20 diacid}-[γGlu]EKEKEKGKE[βAla]RSSCFGGRIDRIGHYSGLGCPSFRHGGPSSGAPPPS-NH2 (bridge 15-31 via thioacetal) [Example 58]  cGMP Assay (EC50, pM) w/Casein                  1220
2  {C20 diacid}-[γGlu]EKEKEKGEK[βAla]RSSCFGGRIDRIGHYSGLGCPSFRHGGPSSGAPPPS-NH2 (bridge 15-31 via thioacetal) [Example 56]  cGMP Assay (EC50, pM) w/Casein                   855
